target: Human SARS-CoV-2_Wuhan S (SmT1) (SARS-CoV-2 (Wuhan), UniProt P0DTC2 14-1208); assay: SPR, VHH over immobilised S
assay-endpoint: kon (M⁻¹ s⁻¹)
Quick note: give the figure in M⁻¹ s⁻¹, leave out the unit.

Worked cases, answers included:
binder	reported-value
NRCoV2-06 VHH (VHH) VHH: EVQLVQSGGGLVQAGESLRLSCAASVSTFSSYAMGWYRQAPGKQRELVASIGFVGATYYIDSVKGRFTISRDNAKKTAYLQMNDLKPDDTAVYYCNARHYGGSEYWGQGTQVTVSS	20500
NRCoV2-SR13 VHH (VHH) VHH: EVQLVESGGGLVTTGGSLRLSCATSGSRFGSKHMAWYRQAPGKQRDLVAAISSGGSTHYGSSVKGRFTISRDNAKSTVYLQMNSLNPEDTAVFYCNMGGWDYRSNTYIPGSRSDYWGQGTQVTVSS	1.06e+06
NRCoV2-S2G4 VHH (VHH) VHH: QVQLVQSGGGLVQAGGSLTLSCAPSGSTFSGYATNWYRQAPGKQRELVATISSDGDKNYADSVKGRFTISRDNAKNTVYLQMNSLKPEDTAVYYCNKHWWTGDWWGQGTQVTVSS	893000

Consider the additional binder presented here.
Query string: Provide only the value of recorded kon for NRCoV2-MRed03 VHH (VHH) VHH: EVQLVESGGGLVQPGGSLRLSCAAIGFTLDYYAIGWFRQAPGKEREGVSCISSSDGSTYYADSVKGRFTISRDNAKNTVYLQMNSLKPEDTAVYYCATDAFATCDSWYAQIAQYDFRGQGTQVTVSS
Result string: 237000
